assay: S16 Schwann cell viability assay (CellTiter-Glo assay) (AID 624031);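 further: native untransfected S16 rat Schwann cells; cellular ATP luminescence as a viability measure; plate controls were DMSO-treated cells for no effect and cell-free wells for full effect; nearly all actives have a fitted effect of over 70% in size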
assay_setup: S16 rat Schwann cells viability, 24 h; series mostly up to 57.5 µM
Results filed as inconclusive are left out. Activity calls are given as the source filed them. The call rests on the fitted dose curve; in most records, active means well fitted cell-killing curve with a large enough effect; inconclusive means small, poorly fitted or top-dose-only effect, or effect the other way; inactive means flat fitted curve, though single readings scatter.
measurement_label: outcome

Here are 6 compounds together with their reported answers.
1) Cc1ncc(CO)c(CN)c1O	inactive
2) COc1ccc(O)cc1	inactive
3) CCCCCCCCCCCCCCCCCCO	inactive
4) CCCCCCCCCCCCCCCCN	inactive
5) CNCc1ccccc1	inactive
6) CC(CN(C)C)C(C)(O)Cc1ccc(Cl)cc1 (stereo not drawn)	inactive

q: Recorded outcome of O=C(O)Cc1cn(-c2ccccc2)nc1-c1ccc(Cl)cc1 , please.
a: inactive

q: outcome lookup needed for O=C(OOC(=O)c1ccccc1)c1ccccc1 , thanks.
a: inactive

###

assay: qHTS of pediatric cancer cell lines to identify multiple opportunities for drug repurposing: Primary screen for TC32 cells (AID 1347089); further: on the % scale 0 is the no-effect control and ±100 the full control effect; nearly all actives have a fitted effect of over 60% in size
assay_setup: TC32 Ewing sarcoma viability, CellTiter-Glo luminescence, 48 h; series mostly up to 45.8 µM
Records with an inconclusive call do not appear. The source made the active and inactive calls. Calls come from the whole dose curve; as a rule, active = well fitted cell-killing curve with a large enough effect; inconclusive = small, poorly fitted or top-dose-only effect; inactive = flat fitted curve, though single readings scatter.
measurement_label: outcome

// below: answered compounds
1) NC(=O)CCCCC1CCSS1 (centres undefined)	inactive
2) O=C(O)c1ccccc1C(=O)Nc1ccc(S(=O)(=O)Nc2nccs2)cc1	inactive
3) O=C1CC[C@@H](C(=O)O)N1	inactive
4) CC(N)CCCC(C)(C)O (centres undefined)	inactive
5) CN/C(=C\[N+](=O)[O-])NCCSCc1csc(CN(C)C)n1	inactive

q: What does the data say about its outcome? Entry: Cc1cc(C)c(NC(=O)CN(CC(=O)O)CC(=O)O)c(C)c1Br
a: inactive

q: I would be grateful if you could share the reported outcome for COc1ccc2cc(CCC(C)=O)ccc2c1 .
a: inactive

q: For CC(=O)OCC(COC(C)=O)OC(C)=O , what is its reported outcome?
a: inactive

q: Sample C[C@@H](N)C(=O)O — what was its outcome?
a: inactive

q: What does the data say about its outcome? Entry: NS(=O)(=O)c1ccc(NC(=O)CCC(=O)O)cc1
a: inactive

q: Could you share which outcome value was measured for Cc1cc(NC(=O)C2=C(O)c3ccccc3S(=O)(=O)N2C)no1 ?
a: inactive

q: Reported outcome for O=S1(=O)OC(c2ccc(O)cc2)(c2ccc(O)cc2)c2ccccc21 : what is it?
a: inactive

q: // returns reported outcome for input O=C(CCBr)N1CCN(C(=O)CCBr)CC1
a: inactive

###

Recorded activity, negative = cell killing values for a group of compounds are listed next.
assay: Drug repurposing screens with cells derived from glioblastoma tumor samples (AID 1345199); further: on the % scale 0 is the no-effect control and ±100 the full control effect; nearly all actives have a fitted effect of over 40% in size
assay_setup: GBM patient neurospheres viability, ATP luminescence, 48 h; at 45.9 µM (top of the series); tumour line D
Records with an inconclusive call do not appear.
# value in %; strip the unit string

Please review the entries below; each comes with its answer.
1. CC1CC(OC(=O)c2ccccc2O)CC(C)(C)C1 (configuration not stated)	-10.1
2. CC(=O)Nc1cccc(O)c1	-9.18
3. NNc1nnc(NN)c2ccccc12	-12.6
4. Cc1cc(O)cc(C)c1Cl	-6
5. O=C1C(c2[nH]c3ccccc3c2O)=Nc2ccccc21	-9.74
6. CCCNC(C)(C)COC(=O)c1ccccc1	11.4

Read the next record carefully.
q: Which value of activity, negative = cell killing has been reported for O=C(O)c1ccccc1C(=O)Nc1ccc(S(=O)(=O)Nc2nccs2)cc1 in the records?
a: -3.34
